Test system: ATP;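 note: ATP exposure 15 min at 22 °C before imaging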
Assay: switch fluorescence ratio, 500 uM ATP over buffer (Cy3 cluster intensity, sum of 5 cycles each) (fold (ratio)); higher = stronger signal-on switching upon ATP binding; sequences stand for … in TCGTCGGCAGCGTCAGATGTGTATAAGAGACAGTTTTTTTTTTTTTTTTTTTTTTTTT…TC
Settings: aptamer strand: ATP DNA aptamer (quencher-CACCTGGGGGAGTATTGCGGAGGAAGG + anchor), 100 nM annealed; ATP concentration: 500 uM
Would you kindly list switch fluorescence ratio for each of these sequences?
Give bare numbers.

> print(dat)
   entry.sequence          measured.quantity  measured
1      AATTGGAGTG  switch fluorescence ratio     0.998

Provide switch fluorescence ratio values for the following items, in order.
1. GTCAGAGGGT
2. CTTGTGTTCT
3. TCCATGTTGA

(A)
1. 0.994
2. 0.996
3. 1.03

Provide switch fluorescence ratio values for the following items, in order.
1. CGAGGCAGCT
2. TTTAAAGTGT
3. GTTGGACCAA
4. TAAGGGGGGC
5. CAGGTGTTTG
6. TTTAGATGGG
7. AAGTAACGCG
8. TTTTTTGCG

(A)
1.16
0.997
1.02
0.98
1.39
0.989
0.977
1.01

Provide switch fluorescence ratio values for the following items, in order.
1. TGCAATTTGT
2. CCCTCCTTG
3. AATAGCATTG
4. CCTGGGGGTA
5. GTATAAATGT

(A)
1: 1; 2: 1.08; 3: 0.972; 4: 1.04; 5: 0.984

* * *

System: ATP;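 note: ATP exposure 15 min at 22 °C before imaging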
Test: switch fluorescence ratio, 500 uM ATP over buffer (Cy3 cluster intensity, sum of 5 cycles each) (fold (ratio)); higher = stronger signal-on switching upon ATP binding; sequences stand for … in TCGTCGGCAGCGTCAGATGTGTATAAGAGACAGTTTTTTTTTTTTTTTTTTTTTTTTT…TC
Settings: aptamer strand: ATP DNA aptamer (quencher-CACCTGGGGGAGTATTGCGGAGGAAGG + anchor), 100 nM annealed; ATP concentration: 500 uM
Rule: met for switch fluorescence ratio not less than 1, not met for anything less.

> print(dat)
   entry.sequence    group
1      CCGGGAGTTA      met
2        TTTGCAGT      met
3      GAGGTTTGCG  not met
4      AGTTTATCGT      met
5      TGAAGTAAGG      met

Next up:
(Q) Identify whether the reported switch fluorescence ratio of the following sequence is 1 or greater: ACTGTACCCT
(A) met

* * *

Tested on: ATP;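 note: ATP exposure 15 min at 22 °C before imaging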
Test: switch fluorescence ratio, 500 uM ATP over buffer (Cy3 cluster intensity, sum of 5 cycles each) (fold (ratio)); higher = stronger signal-on switching upon ATP binding; sequences stand for … in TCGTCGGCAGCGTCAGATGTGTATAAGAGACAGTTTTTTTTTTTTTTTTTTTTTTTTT…TC
Conditions: aptamer strand: ATP DNA aptamer (quencher-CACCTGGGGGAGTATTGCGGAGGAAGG + anchor), 100 nM annealed; ATP concentration: 500 uM
MEASURED_QUANTITY: switch fluorescence ratio
Give bare numbers.

Solved cases (4 shown):
> print(dat)
   entry.sequence  measured
1      AAAGAAAGAT      1.08
2      GGGCGGGGGG      1.01
3      TCTTGTGCAT      1.05
4      GCCATGGGCA         1

Provide switch fluorescence ratio values for the following items, in order.
1. GTTGATAAGA
2. GCGCAAGGGG
3. ATCTTGGCAG
4. AATGTTGTGC
5. AGGGGGGGAT
6. ACGTTCGGCG

(A)
1. 0.982
2. 1.01
3. 0.968
4. 0.938
5. 0.982
6. 0.997

Provide switch fluorescence ratio values for the following items, in order.
1. AGTACGCAAG
2. TACGCAGAAT
3. GAGGTGAGGG
4. ATAATTTAGG
5. TATGGAGCCA
6. GAACTCTGGG
7. GTGGGGATTC
8. GTAGGATTTC

(A)
1.12
3.38
1
0.986
1.02
0.99
0.971
1.01

Provide switch fluorescence ratio values for the following items, in order.
1. TGTGGCACAC
2. TGGACGCGGG

(A)
1.01
1.03
